Just for reference, ChEMBL document CHEMBL1130294 is where these values come from.

Biological target: Calpain-1 catalytic subunit (Homo sapiens, UniProt P07384)
Sequence (P07384 whole entry): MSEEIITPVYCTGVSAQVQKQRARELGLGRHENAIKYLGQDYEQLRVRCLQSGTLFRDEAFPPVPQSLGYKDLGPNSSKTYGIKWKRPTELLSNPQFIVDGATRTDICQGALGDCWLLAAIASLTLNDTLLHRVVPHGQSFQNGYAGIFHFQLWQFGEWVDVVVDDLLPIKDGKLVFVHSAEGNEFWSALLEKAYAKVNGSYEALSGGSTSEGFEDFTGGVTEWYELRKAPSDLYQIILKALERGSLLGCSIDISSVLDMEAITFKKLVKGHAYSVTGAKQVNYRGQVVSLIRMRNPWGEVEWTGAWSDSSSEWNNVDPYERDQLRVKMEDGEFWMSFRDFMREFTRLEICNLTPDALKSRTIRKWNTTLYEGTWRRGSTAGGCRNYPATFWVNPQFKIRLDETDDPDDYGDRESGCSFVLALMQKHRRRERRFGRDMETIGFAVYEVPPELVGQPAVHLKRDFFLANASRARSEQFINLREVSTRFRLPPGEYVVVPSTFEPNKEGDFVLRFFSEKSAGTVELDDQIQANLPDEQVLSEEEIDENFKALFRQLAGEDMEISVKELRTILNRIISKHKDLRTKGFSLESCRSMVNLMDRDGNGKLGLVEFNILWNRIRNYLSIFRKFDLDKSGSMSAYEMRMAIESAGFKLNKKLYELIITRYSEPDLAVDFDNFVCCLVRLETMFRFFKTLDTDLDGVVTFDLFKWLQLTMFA
Assay: Inhibitory activity evaluated against recombinant human calpain 1
Residues, ends and D or L forms follow the SMILES beside them. *: point of attachment. Cbz = O=C(OCc1ccccc1)*; tBu = CC(C)(C)*
assay readout: pIC50
// scale note: pIC50 = -log10(conc_M); give the bare number

> print(dat)
                                   compound  number
1  CC(C)C[C@H](NC(=O)OCc1ccccc1)C(=O)N[C@H](C=O)C(C)C (Cbz-Leu-Val-aldehyde)    8.40
2  CC(=O)N[C@@H](C)C(=O)N[C@@H](CC(C)C)C(=O)N[C@H](C=O)CC(C)C (Ac-Ala-Leu-Leu-aldehyde)    7.74
3  CC(C)C[C@@H](C=O)NC(=O)[C@H](CC(C)C)NC(=O)[C@H](COC(C)(C)C)NC(=O)OCc1ccccc1 (Cbz-Ser(tBu)-Leu-Leu-aldehyde)    7.92
4  CC(=O)N[C@@H](CC(C)C)C(=O)N[C@@H](CC(C)C)C(=O)N[C@H](C=O)Cc1c[nH]c2ccccc12 (Ac-Leu-Leu-Trp-aldehyde)    6.82
5  CC(C)C[C@@H](C=O)NC(=O)[C@H](CC(C)C)NC(=O)[C@H](CC(C)C)NC(=O)OCc1ccccc1 (Cbz-Leu-Leu-Leu-aldehyde)    7.72

What value of pIC50 has been reported for the following compound? CC(C)C[C@@H](C=O)NC(=O)[C@H](CC(C)C)NC(=O)[C@H](Cc1ccccc1)NC(=O)OCc1ccccc1 (Cbz-Phe-Leu-Leu-aldehyde)
7.96

###

Biological target: Calpain-1 catalytic subunit (Homo sapiens)
Sequence (P07384 whole entry): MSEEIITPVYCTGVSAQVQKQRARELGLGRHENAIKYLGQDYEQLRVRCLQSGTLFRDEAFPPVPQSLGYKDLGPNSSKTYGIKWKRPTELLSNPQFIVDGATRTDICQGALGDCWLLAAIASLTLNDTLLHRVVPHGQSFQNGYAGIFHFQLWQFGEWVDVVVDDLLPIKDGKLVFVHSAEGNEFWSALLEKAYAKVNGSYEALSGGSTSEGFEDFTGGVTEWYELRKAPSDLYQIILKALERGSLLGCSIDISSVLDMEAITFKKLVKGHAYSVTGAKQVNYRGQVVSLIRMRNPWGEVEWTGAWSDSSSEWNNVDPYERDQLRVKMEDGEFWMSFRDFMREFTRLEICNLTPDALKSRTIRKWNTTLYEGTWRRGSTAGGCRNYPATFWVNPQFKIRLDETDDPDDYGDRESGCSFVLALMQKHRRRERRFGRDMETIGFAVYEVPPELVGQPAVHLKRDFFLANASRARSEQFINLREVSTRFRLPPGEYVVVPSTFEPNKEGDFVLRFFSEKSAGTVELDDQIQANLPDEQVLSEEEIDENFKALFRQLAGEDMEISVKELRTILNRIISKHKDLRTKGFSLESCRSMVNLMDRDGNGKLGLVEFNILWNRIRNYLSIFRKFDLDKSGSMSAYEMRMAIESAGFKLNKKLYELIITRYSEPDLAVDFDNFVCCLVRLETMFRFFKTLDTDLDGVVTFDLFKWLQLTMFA
Assay: Inhibitory activity evaluated against recombinant human calpain 1
Non-standard residues stand in square brackets, D forms with d. Residues, ends and D or L forms follow the SMILES beside them. *: point of attachment. Tle = CC(C)(C)[C@H](N)C(=O)O; Cbz = O=C(OCc1ccccc1)*; OtBu = CC(C)(C)O*
assay readout: IC50 (nM)
Answer format: numeric, nM implied, no suffix.

These recorded examples may help you get a feel for the data.
> print(dat)
                                   molecule  assay.readout  number
1  CSCCC(C=O)NC(=O)C(CC(C)C)NC(=O)[C@H](CC(C)C)NC(C)=O (single isomer, unassigned)           IC50      23
2  CC(C)C[C@@H](C=O)NC(=O)[C@H](CC(C)C)NC(=O)[C@H](CCC(=O)OC(C)(C)C)NC(=O)OCc1ccccc1 (Cbz-Glu(OtBu)-Leu-Leu-aldehyde)           IC50      25

What value of IC50 has been reported for the following molecule? CC(C)C[C@H](NC(=O)OCc1ccccc1)C(=O)N[C@H](C=O)C(C)(C)C (Cbz-Leu-[Tle]-aldehyde)
35
